Origin of values: patent US20240400654A1

# study_system: HRgpA-6H (Porphyromonas gingivalis) (UniProt P28784)
# assay_remarks: ELISA, coated HRgpA-6H
Form field: Ratio OD(Variant)/OD(WT) (one value per entry).
attribute_measured: Ratio OD(Variant)/OD(WT)

binder | recorded_result
KB001 mouse Fab VL N54L (Fab, V domains shown) VH: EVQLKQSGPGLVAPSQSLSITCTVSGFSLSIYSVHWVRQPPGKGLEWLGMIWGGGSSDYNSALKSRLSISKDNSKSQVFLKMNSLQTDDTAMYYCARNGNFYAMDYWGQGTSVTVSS VL: QIVLTQSPAIMSASLGERVTMTCTASSSVSSSFLHWYQQKPGSSPQLWIYSTSLLASGVPARFSGSGSGTSYSLTISSMEAEDAATYYCHQYHHSPYIYTFGGGTKLEIK | 0.988
KB001 mouse Fab VH S61Q (Fab, V domains shown) VH: EVQLKQSGPGLVAPSQSLSITCTVSGFSLSIYSVHWVRQPPGKGLEWLGMIWGGGSSDYNQALKSRLSISKDNSKSQVFLKMNSLQTDDTAMYYCARNGNFYAMDYWGQGTSVTVSS VL: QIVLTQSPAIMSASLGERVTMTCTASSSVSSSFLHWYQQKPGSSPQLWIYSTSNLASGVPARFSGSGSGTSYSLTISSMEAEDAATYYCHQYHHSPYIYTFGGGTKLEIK | 1.28
KB001 mouse Fab VH S30E (Fab, V domains shown) VH: EVQLKQSGPGLVAPSQSLSITCTVSGFSLEIYSVHWVRQPPGKGLEWLGMIWGGGSSDYNSALKSRLSISKDNSKSQVFLKMNSLQTDDTAMYYCARNGNFYAMDYWGQGTSVTVSS VL: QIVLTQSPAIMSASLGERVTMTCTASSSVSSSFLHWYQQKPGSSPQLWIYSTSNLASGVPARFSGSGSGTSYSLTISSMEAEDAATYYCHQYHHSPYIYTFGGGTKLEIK | 1.12
